In this section, each of the molecules is paired with its reported IC50.
- System: A549 human lung adenocarcinoma cell line
- experiment description: XTT cytotoxicity assay on A549 cells
- Type: cell-based
- measurement setup: Homo sapiens, A549, 24 h incubation, Mean ± standard deviation, read-out: IC50 Values for Cell Lines A549

Guide cases for IC50, answers given:
O=C(CSc1nnc(Nc2ccc(Cl)cc2Cl)s1)N1CCOCC1 : > 1.23 mM
COc1ccc(OCc2nnc(SCC(=O)NCc3ccc4c(c3)OCO4)o2)cc1 : > 1.17 mM
Nn1c(COc2ccccc2)nnc1SCC(=O)N1CCOCC1 : > 1.43 mM
O=C(CSc1nnc(COc2ccc3c(c2)CCCC3)o1)N1CCOCC1 : > 1.28 mM
O=C(CSc1nnc(Nc2ccc(Cl)cc2Cl)s1)NCc1ccc2c(c1)OCO2 : > 1.07 mM
COc1ccc(OCc2nnc(SCC(=O)N3CCOCC3)o2)cc1 : 1.37 mM

// recorded IC50 for "O=C(CSc1nnc(COc2ccc3c(c2)CCCC3)o1)NCc1ccc2c(c1)OCO2" : 0.125 mM

// IC50 lookup, molecule = "O=C(CSc1nnc(-c2ccccc2)o1)NCc1ccc2c(c1)OCO2" , result: 0.349 mM

Entry under test: "Nn1c(COc2ccccc2)nnc1SCC(=O)NCc1ccc2c(c1)OCO2" . Its IC50 was > 1.21 mM

* * *

Each item that follows carries a reported melting point.
// note: answer is a bare numeric in °C

Worked examples follow.
O=C(CSc1nnc(Nc2ccc(Cl)cc2Cl)s1)N1CCOCC1 [Compound 1] : 154
COc1ccc(OCc2nnc(SCC(=O)N3CCOCC3)o2)cc1 [Compound 3] : 119
O=C(CSc1nnc(-c2ccccc2)o1)NCc1ccc2c(c1)OCO2 [Compound 9] : 136
Nn1c(COc2ccccc2)nnc1SCC(=O)N1CCOCC1 [Compound 2] : 213
O=C(CSc1nnc(Nc2ccc(Cl)cc2Cl)s1)NCc1ccc2c(c1)OCO2 [Compound 5] : 187
COc1ccc(OCc2nnc(SCC(=O)NCc3ccc4c(c3)OCO4)o2)cc1 [Compound 7] : 127
Nn1c(COc2ccccc2)nnc1SCC(=O)NCc1ccc2c(c1)OCO2 [Compound 6] : 148

Continue with the next compound.
Looking up O=C(CSc1nnc(COc2ccc3c(c2)CCCC3)o1)NCc1ccc2c(c1)OCO2 [Compound 8] , I found its melting point recorded as 96

Data provenance: paper PMC6152322
